Provide the recorded growth for the entries that follow.
- Test system: 786-0 renal
- procedureDetails: NCI-60 one-dose screen, 48 h (100 = growth as untreated, 0 = no growth, -100 = all killed)
- setupConditions: 10 µM unless noted
Compounds without any hit were thinned out: in the full panel of roughly 83,000, 20% have a hit.
Please respond with the number in % and leave the unit unwritten.

Inquiry: Name the value of growth reported for O=C(CSc1nc2c(n1Nc1ccccc1)-c1ccccc1SC2)Nc1nc(-c2ccc(Cl)cc2)cs1 when tested on 786-0 renal.
Reply text: 71.5

Inquiry: Name the value of growth reported for Cc1cc(O)c2c(c1)C[C@H]1[C@@H]3CC[C@H]4CC(=O)CC[C@]4(C)[C@H]3CC(=O)[C@]21C when tested on 786-0 renal.
Reply text: 87.8

Inquiry: Name the value of growth reported for C=C(C[C@](O)(C(=O)/C=C/c1ccc(Cl)cc1)C(=O)OC)c1ccccc1 when tested on 786-0 renal.
Reply text: 84

Inquiry: Name the value of growth reported for O=C(Nc1ncc([N+](=O)[O-])s1)c1cccc([N+](=O)[O-])c1 when tested on 786-0 renal.
Reply text: 18

Inquiry: Name the value of growth reported for C[C@]12CC[C@@H]3c4ccc(O)cc4CC[C@H]3[C@@H]1CC[C@@H]2NS(=O)(=O)c1cccc(Br)c1 when tested on 786-0 renal.
Reply text: 70.3

###

- Test system: OVCAR-5 ovarian
- procedureDetails: NCI-60 one-dose screen, 48 h (100 = growth as untreated, 0 = no growth, -100 = all killed)
- setupConditions: 10 µM unless noted
Compounds without any hit were thinned out: in the full panel of roughly 83,000, 20% have a hit.
Simple rule here: growth less than 90% is yes, otherwise no.

Inquiry: Input O=C(C=C=Nc1ccccc1)C(=O)N=C=Cc1ccccc1 ; condition: growth strictly below 90%. Does it hold?
Reply text: yes

Inquiry: Input COC(=O)CC1=C(C)/C(=C/c2[nH]c(-c3ccc[nH]3)cc2OC)N=C1C ; condition: growth strictly below 90%. Does it hold?
Reply text: yes

Inquiry: Input O=[N+]([O-])c1cnc(Sc2ccncn2)c([N+](=O)[O-])c1 ; condition: growth strictly below 90%. Does it hold?
Reply text: no

Inquiry: Input CC[C@H](C)C(=O)O[C@H]1C[C@@H](C)C=C2C=C[C@H](C)[C@H](CC[C@@H]3C[C@@H](O)CC(=O)O3)[C@H]21 ; condition: growth strictly below 90%. Does it hold?
Reply text: yes

Inquiry: Input Clc1ccc(-n2cnc3c(Cl)ncnc32)cc1Cl ; condition: growth strictly below 90%. Does it hold?
Reply text: yes

Inquiry: Input O=C(Nc1ccc(Cl)cc1)Nc1ccc(Nc2nncc3ccccc23)cc1 ; condition: growth strictly below 90%. Does it hold?
Reply text: yes

Inquiry: Input COC1=CC(c2ccc[nH]2)=N/C1=C\c1[nH]c(C)c(C(=O)CCC(=O)Oc2ccc3c(c2)CCC2C3CC[C@]3(C)C(=O)CC[C@@H]23)c1C (stereo not given in full) ; condition: growth strictly below 90%. Does it hold?
Reply text: yes

Inquiry: Input COc1cc(C2C=C(c3ccc(C)cc3)Nc3nc(SC)[nH]c(=O)c32)ccc1Oc1ccnc2cc(Cl)ccc12 (stereo not given) ; condition: growth strictly below 90%. Does it hold?
Reply text: yes

Inquiry: Input Nc1nc(SCC2(CCl)COC2)c2[nH]cnc2n1 ; condition: growth strictly below 90%. Does it hold?
Reply text: no

Inquiry: Input c1ccc(N2CCN(c3nncc4ccccc34)CC2)nc1 ; condition: growth strictly below 90%. Does it hold?
Reply text: no

Inquiry: Input Cc1cc2cn3c4cccnc4[nH]c(=O)c3c2cc1C ; condition: growth strictly below 90%. Does it hold?
Reply text: no

Inquiry: Input O=C(N1CCC(CN=c2cc3n(-c4ccc(Cl)cc4)c4ccccc4nc-3cc2Nc2ccc(Cl)cc2)CC1)N1CC1 ; condition: growth strictly below 90%. Does it hold?
Reply text: yes

Inquiry: Input Cc1ccc2c(c1)C(=O)/C(=C/c1ncc([N+](=O)[O-])n1C)O2 ; condition: growth strictly below 90%. Does it hold?
Reply text: yes

Inquiry: Input c1ccc(-c2nn[nH]n2)c(-c2ccc(CN3CCN(c4nsc5ccccc45)CC3)cc2)c1 ; condition: growth strictly below 90%. Does it hold?
Reply text: no

Inquiry: Input c1ccc(Nc2nnc(-c3cc(-c4cccnc4)n(-c4ccccc4)n3)s2)cc1 ; condition: growth strictly below 90%. Does it hold?
Reply text: no

Inquiry: Input CCCCCCCCCCCCCCCCCc1nccn1CCO ; condition: growth strictly below 90%. Does it hold?
Reply text: yes

Inquiry: Input CSc1nc2c(c(=O)[nH]1)C(c1ccc(Cl)cc1)C1=C(N2)/C(=C/c2ccc(Cl)cc2)CNC1 (stereo not given) ; condition: growth strictly below 90%. Does it hold?
Reply text: no

###

- Tested on: UACC-257 melanoma
- procedureDetails: NCI-60 one-dose screen, 48 h (100 = growth as untreated, 0 = no growth, -100 = all killed)
- setupConditions: 10 µM unless noted
- Procedure: Cells are grown in 96 well plates and exposed to the test compound for 48 hours. Compounds are tested at a single concentration, which is 10^-5 M for most compounds. The reported endpoint is percent growth (GI% or GIPRCNT), where numbers from 0 - 100% represent growth inhibition, and numbers from -100% - 0 represent cell death. For example, a value of 40 represents 60% growth inhibition. A value of 0 means no net growth occurred over the course of the experiment. […]
Compounds without any hit were thinned out: in the full panel of roughly 83,000, 20% have a hit.
Provide the recorded growth for the entries that follow.
Please respond with the number in % and leave the unit unwritten.

Inquiry: Indicate the recorded growth value for this compound: Clc1cc(Cl)c(OCC#CI)cc1Cl
Reply text: -3.08

Inquiry: Indicate the recorded growth value for this compound: Clc1ccc2nc(Cl)c3ccccc3c2c1
Reply text: 93.1

Inquiry: Indicate the recorded growth value for this compound: CCOC(=O)C1=C(C)N2C(=NC3=C(CCC/C3=C\c3ccc(Cl)cc3)C2c2ccc(Cl)cc2)S1 (stereo not drawn)
Reply text: 25.7

Inquiry: Indicate the recorded growth value for this compound: C[C@]12CC[C@@H]3c4ccc(O)c([N+](=O)[O-])c4CC[C@H]3[C@@H]1CC[C@@H]2NS(=O)(=O)c1ccc(C(F)(F)F)cc1
Reply text: 44

Inquiry: Indicate the recorded growth value for this compound: COc1ccc(OC)c(NC(=O)c2cc3oc4ccccc4c3cc2O)c1
Reply text: 92

Inquiry: Indicate the recorded growth value for this compound: OCc1nnn(-c2ccccc2)c1CO
Reply text: 124

Inquiry: Indicate the recorded growth value for this compound: COc1cccc(CCC2C(=O)CCCC2=O)c1
Reply text: 108

Inquiry: Indicate the recorded growth value for this compound: COc1ccc(C2=NN(C(C)=O)C(c3cc(OC)c(OC)c(OC)c3)C2)cc1 (stereo not drawn)
Reply text: 113

Inquiry: Indicate the recorded growth value for this compound: CC(=O)c1nc2ccccc2n1CCn1cc(CC(N)C(=O)O)c2ccccc21 (stereo not drawn)
Reply text: 110

Inquiry: Indicate the recorded growth value for this compound: COc1ccc2c(c1)C(=O)/C(=C/c1ccc([N+](=O)[O-])s1)O2
Reply text: -0.975

Inquiry: Indicate the recorded growth value for this compound: C[N+]1(CCC[N+]2(C)C[C@@H]3[C@H](C2)[C@@H]2C=C[C@H]3C2)CCOCC1 (stereo partly drawn)
Reply text: 112

Inquiry: Indicate the recorded growth value for this compound: Nc1c2ccccc2nc2ccccc12 (tested in a mixture with another compound)
Reply text: -11.3

Inquiry: Indicate the recorded growth value for this compound: N#Cc1c(N)[nH]c(S)c1C#N
Reply text: 99.9

Inquiry: Indicate the recorded growth value for this compound: Cn1cc(-c2csc(-c3cn(C)c4ncccc34)n2)c2cccnc21
Reply text: 99.8

Inquiry: Indicate the recorded growth value for this compound: CCN(CC)CCOc1ccccc1-n1c(C)ccc1-c1ccccc1
Reply text: 100

Inquiry: Indicate the recorded growth value for this compound: O=C1/C(=C/c2ccc([N+](=O)[O-])o2)Oc2ccc(Br)cc21
Reply text: 69.1

Inquiry: Indicate the recorded growth value for this compound: CCOc1cc(-c2ccc[nH]2)[nH]c1/C=C1\N=C(C)C(C(=O)OC)=C1C
Reply text: -56.7

Inquiry: Indicate the recorded growth value for this compound: c1ccc(-c2nn[nH]n2)c(-c2ccc(CN3CCN(c4nsc5ccccc45)CC3)cc2)c1
Reply text: 99.8

###

- Tested on: HCC-2998 colon
- procedureDetails: NCI-60 one-dose screen, 48 h (100 = growth as untreated, 0 = no growth, -100 = all killed)
- setupConditions: 10 µM unless noted
The panel holds about 83,000 compounds, 20% with a hit somewhere; the sample as a whole holds those more often.
Provide the recorded growth for the entries that follow.
Please respond with the number in % and leave the unit unwritten.

Inquiry: Indicate the recorded growth value for this molecule: CCC(C)(C)C(=O)O[C@H]1C[C@@H](C)C=C2C=C[C@H](C)[C@H](CC[C@@H]3C[C@@H](O)CC(=O)O3)[C@H]21
Reply text: 71.9

Inquiry: Indicate the recorded growth value for this molecule: Cn1cc(-c2csc(-c3cn(C)c4ncccc34)n2)c2cc(Br)cnc21
Reply text: 98

Inquiry: Indicate the recorded growth value for this molecule: CCCC[N+](CCCC)=c1ccc2nc3c(C)cc(N(CC)CC)cc3sc-2c1
Reply text: 24.4

Inquiry: Indicate the recorded growth value for this molecule: [O-]/[N+](=C\C=C\c1ccccc1)c1ccccc1
Reply text: 103

Inquiry: Indicate the recorded growth value for this molecule: CCN(CC)CCNc1ccc(Cl)cc1Cl
Reply text: 97.4
